Values from the supplement of paper PMC9170038

tested on: MS2 coat protein; assay: apparent KD of MS2 coat protein; designed switch direction (-1 OFF switch, 1 ON switch): -1; higher = weaker reporter binding; conditions: input ligand: FMN 200 uM
experimental.readout: apparent KD of MS2 coat protein (nM)
Return type: number; implicit unit nM.

# sequence.input, apparent KD of MS2 coat protein (nM)
rows = [
    ("AUUAAACAUGUAGGAUAUGCGUGGCAAAGCUAUGCAGAAGGACAUGAGGAUCACCCAUGUAAAAGCGUCUGCGUACAGAUGCAA [Mat - Exclusion NG 1 - Mod of JL - D86] (Eterna round: R96, puzzle: Exclusion NG 1)", 314),
]

Problem: apparent KD of MS2 coat protein of ACAUGAGGAUCACCCAUGUCAGGCGGGUCUACUCCGGCUGUUGAGGAUAUAGUUCGGUAUCCGCGCUAGAAGGUGAGGGCCGGC [Aenatbe mod 23] (Eterna round: R96, puzzle: Exclusion NG 3) on MS2 coat protein?
Result: 20.8

Problem: Also UGUGCUUCAGGAUAUACGUGACGACCGUGAGGUCGAAGGUUACAUGAGGAUCACCCAUGUAGAAGGGAAGUACU [Mat - Exclusion 2 - JL Mod - D29] (Eterna round: R97, puzzle: Exclusion 2) ?
Result: 66.8

Problem: Also GUGACCAUAGGAUAUACAUGAGGAUCACCCAUGUGCAAGUCGGAAGACCUGCGGUCAUGUAGAAGGAUGUAAUU [EX3 A.19] (Eterna round: R97, puzzle: Exclusion 3) ?
Result: 18.3

Problem: Also CUGAUGUGAGGAUAUCUACGCCAAGUGUUUCACUUGGCGCAAGAGAAGGCACAUGAGGAUCACCCAUGUACUUC [jl-ex4-4.37 ViennaUCT mod] (Eterna round: R97, puzzle: Exclusion 4) ?
Result: 137

Problem: Also GUCGGGCGUGUCAGGAUAUGGUAGAGUGGUCGCGGCCAGAAGGGACAUGAGGAUCACCCAUGUUCCGUGGGCAG [BmEX4 C.11] (Eterna round: R97, puzzle: Brourd's mod of Exclusion 4) ?
Result: 19

Problem: Also GAGUGUUGAGGAUAUACAUGAGGAUCACCCAUGUGCUUCAGCUAGGAGACUAGCAUUGGUAGAAGGCAGUACUC [Mod of lroppy 9 - Jieux - Exclusion 3] (Eterna round: R97, puzzle: Exclusion 3) ?
Result: 48.3

Problem: Also AUUAGCGUAGGAUAUUAGUACAUGUACAUGAGGAUCACCCAUGUGAGGUGAGUCUUAGAUUAAGAAGGGCGAAGAA [EX5 #34] (Eterna round: R97, puzzle: Exclusion 5) ?
Result: 309

Problem: Also AAUUAGCAAGCGAGAUCCCACAUGAGGAUCACCCAUGUGCUCGUCUUAUAAGGUACUGUGACAAAAGUCACGGUACC [Mat - Sensor, turn-off var - Eli Mod - D18] (Eterna round: R97, puzzle: Sensor, turn-off variant 1) ?
Result: 17.9
